The reported measurements were obtained from paper PMC7114351.

- protocol description: Cytotoxicity, MTT assay
- Type: cell-based, mouse
- test context: mouse, L929 cells
endpoint name: CC50 at 2 days (µM)

>>> measured_number("C=C(CC)C(=O)c1ccc(OCC(=O)O)c(Cl)c1Cl [Ethacrynic acid, ethacrynic acid]")
224

----------
- Test system: WT VACV (WR)
- protocol description: microbe, parasite or virus in culture
- Type: cell-based
- test context: Orthopoxvirus vaccinia, HeLa, 24 h, read-out: Titer IC50 ± SD
pIC50: −log10 of the molar value.
endpoint name: pIC50

>>> measured_number("O=C(O)CCCCC1CCSS1 (stereo not drawn) [Lipoic acid, α-lipoic acid]")
3.10

----------
- protocol description: Cytotoxicity, MTT assay
- Type: cell-based, human
- test context: human, HeLa G cells
endpoint name: CC50 at 2 days (µM)

>>> measured_number("C=C(CC)C(=O)c1ccc(OCC(=O)O)c(Cl)c1Cl")
128

----------
- System: recombinant VACV
- protocol description: microbe, parasite or virus in culture
- Assay type: cell-based, vaccinia virus
- test context: Orthopoxvirus vaccinia, HeLa, 24 h, read-out: Titer IC50 ± SD
endpoint name: IC50 (µM)

>>> measured_number("O=C(O)CCCCC1CCSS1 (centres unmarked)")
220
>>> measured_number("C=C(CC)C(=O)c1ccc(OCC(=O)O)c(Cl)c1Cl")
1.6

----------
Reported values of IC50 for individual entries
- Test system: recombinant VACV expressing luciferase
- protocol description: microbe, parasite or virus in culture
- Format: cell-based, vaccinia virus
- test context: Orthopoxvirus vaccinia, 24 h, read-out: Luc IC50 ± SD
endpoint name: IC50 (µM)

>>> measured_number("O=C(O)CCCCC1CCSS1 (stereo not drawn) [Lipoic acid, α-lipoic acid]")
305
>>> measured_number("C=C(CC)C(=O)c1ccc(OCC(=O)O)c(Cl)c1Cl [Ethacrynic acid, ethacrynic acid]")
18.3
